Cited source: patent US20020187938A1

# Protocol Summary: Solubility in water
# Type: physicochemical
# Measurement Setup: water
Where a SMILES comes first, the peptide text is derived from it. The star is where a group is joined. Octanoyl = CCCCCCCC(=O)*
Readout Kind: solubility
Note to self: number, then unit, no commentary.

Per the record, CCCCCCCC(=O)OC[C@H](NC(=O)[C@H](CO)NC(=O)CN)C(=O)N[C@@H](Cc1ccccc1)C(=O)N[C@@H](CC(C)C)C(=O)N[C@@H](CO)C(=O)N1CCC[C@H]1C(=O)N[C@@H](CCC(=O)O)C(=O)N[C@@H](C)C(=O)N[C@@H](CCCCN)C(=O)N[C@@H](CC(C)C)C(=O)N[C@@H](CCC(N)=O)C(=O)N1CCC[C@H]1C(=O)N[C@@H](CCCNC(=N)N)C(=O)O [Peptide of Example 2] (H-GSS(Octanoyl)FLSPEAKLQPR-OH) has solubility of 900 µg/mL

Per the record, CCCCCCCC(=O)OC[C@H](NC(=O)[C@H](CO)NC(=O)CN)C(=O)N[C@@H](Cc1ccccc1)C(=O)N[C@@H](CC(C)C)C(=O)N[C@@H](CO)C(=O)N1CCC[C@H]1C(=O)N[C@@H](CCC(=O)O)C(=O)O [Peptide of Example 1] has solubility of 700 µg/mL
